This section presents molecules with their documented max response values.
experiment-description: Cycloheximide Counterscreen for Small Molecule Inhibitors of Shiga Toxin; further: read at 38.3 µM for the half of the compounds with a filed dose; 0% is about no effect
test-conditions: cell reporter, cycloheximide protein synthesis inhibition counterscreen; hits give high values
In all, about 300,000 compounds went through this assay and about 37,000 (12%) were called active. The sample holds actives, similar compounds and a random draw of the others, so the mix is not that of the screen.
Numeric only. Scale: %

In: Fill in max response for record O=C(Nc1ccc2c(c1)OCCO2)c1ccoc1
Out: 35.3

Further cases:
In: Kindly indicate its recorded max response. Item: CCOC(=O)C(=Cc1ccccc1OC)C(=O)OCC
Out: 2.29

In: Consider the molecule O=C(CCN1CCN(C/C=C/c2ccccc2)CC1)Nc1ccccc1Cl . State its measured max response.
Out: -2.77

In: Tell us which max response value is on record for Cn1c(=O)c2c(nc(NCCNC(=O)c3ccco3)n2Cc2ccccc2F)n(C)c1=O
Out: -1.04

In: Give recorded max response. Cc1ccccc1-n1c(C)cc(/C=N/NC(=O)c2ccc(CN3CCOCC3)cc2)c1C
Out: 1.39

====

experiment-description: Cycloheximide Counterscreen for Small Molecule Inhibitors of Shiga Toxin; further: read at 38.3 µM for the half of the compounds with a filed dose; 0% is about no effect
test-conditions: cell reporter, cycloheximide protein synthesis inhibition counterscreen; hits give high values
Among all 300,000 compounds or so, about 37,000 (12%) were called active. The sample holds actives, similar compounds and a random draw of the others, so the mix is not that of the screen.
reported-property: max response (%)
Field: numeric (%). Do not append units.

In: Quickly give me recorded max response for Oc1ccc(CNc2ccccc2O)cc1
Out: 35.8

In: // fetch max response given entry CN1C(=O)[C@H]2[C@@H](C3CC3)N3C(=O)CN(Cc4ccccc4)C(=O)[C@@]3(C)[C@H]2C1=O
Out: -0.826

In: For the compound CCN(CC)CCN1C(=O)C(=O)/C(=C(/O)c2cnn(-c3ccccc3)c2C)C1c1cccs1 (configuration not stated) , report max response.
Out: 49.4

In: Please give the documented max response of CCOC(=O)C1=C(c2ccccc2)NC(=O)NC1c1cc(OCC)c(O)c([N+](=O)[O-])c1 (configuration not stated)
Out: -1.22

In: Specify max response for CCCCCn1c(=O)c(C(=O)Nc2c(C)n(C)n(-c3ccccc3)c2=O)c(O)c2ccccc21 and stop.
Out: -1.67

In: // Input: O=C1COc2ccc(C(=O)COC(=O)C3CC(O)CN3S(=O)(=O)c3ccc(Cl)cc3)cc2N1 (configuration not stated) . Output its max response only.
Out: -1.44

Continuing:
In: Give the reported value of max response for this record: Cc1nc2nc(SCC(=O)c3ccccc3)[nH]c2cc1Br
Out: 1.25

In: Provide max response value for the following compound: COc1cccc(N(CC(=O)NCc2ccccc2)C(=O)CCC(=O)Nc2nccs2)c1
Out: -5.29

In: Look up and state reported max response for CCOC(=O)NC(=O)/C(C#N)=C\c1ccccc1
Out: -1.84

====

experiment-description: Cycloheximide Counterscreen for Small Molecule Inhibitors of Shiga Toxin; further: read at 38.3 µM for the half of the compounds with a filed dose; 0% is about no effect
test-conditions: cell reporter, cycloheximide protein synthesis inhibition counterscreen; hits give high values
About 37,000 (12%) of roughly 300,000 compounds were called active. The full list was thinned out, with actives kept by preference.
Measured max response accompanies every entry in the list below.
Provide the reading as a plain figure in %.

Completed entries (count: 5):
In: Tell us which max response value is on record for Cc1ccc(Cl)c(NC(=O)CN2CCN(C=O)CC2)c1
Out: 5.32

In: Complete the entry with the larger response for Cc1sc2nc(SCCO)n(-c3ccccc3)c(=O)c2c1C
Out: 1.18

In: State its max response for this molecule: CC(C)(C)c1ccc(/C=C/C(=O)NC2CCS(=O)(=O)C2)cc1 (configuration not stated)
Out: 5.09

In: Note down max response recorded for O=C(O)c1c(NC(=O)N2CCCC2)sc2c1CCCC2
Out: 25.7

In: Indicate the recorded max response value for this molecule: CCOc1ccc(NC(=O)CCS(=O)(=O)c2ccc3c(c2)CCCN3C(=O)CC)cc1
Out: -2.69

New cases:
In: Fill in reported max response for this entry: CC(=O)c1ccc(N2CCN(CC(O)c3ccccc3)CC2)cc1 (configuration not stated)
Out: 5.47

In: Specify measured max response for CCCc1c(C(=O)N/N=C(\C)CCc2ccc(OC)cc2)nnn1-c1nonc1N .
Out: 11
